target: ER-α in MCF-7 cells (Homo sapiens, UniProt P03372); experiment: Breast cancer cell ER-α in cell western assay (SP1); format: cell-based; set-up: endogenous in cells; host or cells: MCF-7; conditions: SP1 antibody, 4 or 24 hr post compound addition, read-out: ER-α In Cell Western Assay (SP1) IC50
Sequence (P03372 whole entry): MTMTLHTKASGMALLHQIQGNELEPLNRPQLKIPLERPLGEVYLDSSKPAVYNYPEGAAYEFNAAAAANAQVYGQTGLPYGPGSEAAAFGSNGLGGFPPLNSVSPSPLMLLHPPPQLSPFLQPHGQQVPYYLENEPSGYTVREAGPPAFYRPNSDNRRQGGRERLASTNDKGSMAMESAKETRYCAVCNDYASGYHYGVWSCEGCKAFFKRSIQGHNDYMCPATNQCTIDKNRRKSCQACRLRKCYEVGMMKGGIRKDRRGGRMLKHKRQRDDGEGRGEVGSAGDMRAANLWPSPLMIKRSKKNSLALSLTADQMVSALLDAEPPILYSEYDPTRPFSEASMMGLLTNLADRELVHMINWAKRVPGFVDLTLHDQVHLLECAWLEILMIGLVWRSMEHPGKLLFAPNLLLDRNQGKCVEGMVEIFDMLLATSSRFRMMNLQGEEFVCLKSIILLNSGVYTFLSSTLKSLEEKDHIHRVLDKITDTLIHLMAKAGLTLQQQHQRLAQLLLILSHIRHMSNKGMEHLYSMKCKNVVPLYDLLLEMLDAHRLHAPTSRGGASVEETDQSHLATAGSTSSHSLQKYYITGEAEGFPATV
quantityMeasured: DC50

INSERT INTO assay_data (substancesmiles, quantitymeasured, measuredresult) VALUES
  ('CC/C(=C(/c1ccc(/C=C/C(=O)O)cc1)c1ccc2nsnc2c1)c1ccccc1', 'DC50', '> 100 nM'),
  ('CC/C(=C(/c1ccc(/C=C/C(=O)O)cc1)c1ccc2ncccc2c1)c1ccc(F)cc1', 'DC50', '> 100 nM'),
  ('CC/C(=C(/c1ccc(/C=C/C(=O)O)cc1)c1ccc2[nH]ncc2c1)c1cnc(C)s1', 'DC50', '> 100 nM'),
  ('CC/C(=C(/c1ccc(/C=C/C(=O)O)cc1)c1ccc2[nH]ncc2c1)c1ccc(-n2cccn2)cc1', 'DC50', '> 100 nM'),
  ('CC/C(=C(/c1ccc(/C=C/C(=O)O)cc1)c1ccc2[nH]ncc2c1F)c1cccc(OC2CCOCC2)c1', 'DC50', '≤ 100 nM'),
  ('CC/C(=C(/c1ccc(/C=C/C(=O)O)cc1)c1ccc2[nH]ncc2c1)c1cccc(Oc2ccccc2)c1', 'DC50', '≤ 100 nM'),
  ('CC/C(=C(/c1ccc(/C=C/C(=O)O)cc1)c1ccc2nncn2c1)c1ccccc1', 'DC50', '> 100 nM'),
  ('CC/C(=C(/c1ccc(/C=C/C(=O)O)cc1)c1ccc2[nH]ncc2c1)c1cccc(OCC(=O)O)c1', 'DC50', '> 100 nM'),
  ('CC/C(=C(/c1ccc(/C=C/C(=O)O)cc1)c1ccc2[nH]ncc2c1)c1cccc(OCCCOC)c1', 'DC50', '≤ 100 nM'),
  ('CC/C(=C(/c1ccc(/C=C/c2noc(=O)[nH]2)cc1)c1ccc2[nH]ncc2c1)c1ccccc1', 'DC50', '≤ 100 nM'),
  ('CC/C(=C(/c1ccc(/C=C/C(=O)O)cc1)c1ccc2[nH]ncc2c1)c1ccc2c(c1)N(C)C(=O)CO2', 'DC50', '> 100 nM'),
  ('CC/C(=C(/c1ccc(/C=C/C(=O)O)cc1)c1ccn2nccc2c1)c1ccccc1', 'DC50', '> 100 nM'),
  ('CC/C(=C(/c1ccc(/C=C/C(=O)O)cc1)c1ccc2scnc2c1)c1ccc(F)cc1Cl', 'DC50', '≤ 100 nM'),
  ('CCCCCCOc1ccc(/C(CC)=C(\c2ccc(/C=C/C(=O)O)cc2)c2ccc3[nH]ncc3c2)cc1', 'DC50', '> 100 nM'),
  ('CCCCCOc1cccc(/C(CC)=C(\c2ccc(/C=C/C(=O)O)cc2)c2ccc3[nH]ncc3c2)c1', 'DC50', '≤ 100 nM'),
  ('CCCCCCOc1cccc(/C(CC)=C(\c2ccc(/C=C/C(=O)O)cc2)c2ccc3[nH]ncc3c2)c1', 'DC50', '≤ 100 nM'),
  ('CC/C(=C(/c1ccc(/C=C/C(=O)O)cc1)c1ccc2nccn2c1)c1ccccc1', 'DC50', '≤ 100 nM'),
  ('CC/C(=C(/c1ccc(/C=C/C(=O)O)cc1)c1ccc2[nH]ncc2c1F)c1cccc(OC2CCCCC2)c1', 'DC50', '≤ 100 nM'),
  ('CC/C(=C(/c1ccc(/C=C/C(=O)O)cc1)c1ccc2[nH]ncc2c1)c1ccc2c(c1)OCO2', 'DC50', '≤ 100 nM');
